Reference for the values: patent US20200216439A1

target: catalytic domain of human Bub1 (amino acids 704-1085) (Homo sapiens, UniProt O43683); construct: catalytic domain of human Bub1 (amino acids 704-1085); His6 (N); made in house; host or cells: Hi5 insect cells; test: Bub1 kinase assay (TR-FRET); assay type: biochemical
Sequence (O43683 704-1085): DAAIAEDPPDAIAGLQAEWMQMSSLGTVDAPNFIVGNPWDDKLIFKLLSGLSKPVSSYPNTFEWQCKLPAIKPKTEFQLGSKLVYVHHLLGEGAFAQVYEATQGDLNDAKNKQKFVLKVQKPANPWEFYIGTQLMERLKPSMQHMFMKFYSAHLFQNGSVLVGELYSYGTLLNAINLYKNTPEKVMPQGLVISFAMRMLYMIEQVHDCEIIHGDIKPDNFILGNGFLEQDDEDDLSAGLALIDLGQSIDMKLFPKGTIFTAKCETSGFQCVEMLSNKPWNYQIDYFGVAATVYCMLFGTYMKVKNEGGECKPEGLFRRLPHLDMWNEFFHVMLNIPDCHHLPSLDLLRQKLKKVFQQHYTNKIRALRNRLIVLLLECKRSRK
endpointLabel: pIC50
Formally, pIC50 is defined as -log10 of the concentration c, with c in mol/L.

Which pIC50 value belongs to COc1cc(C(=O)Nc2cc(-c3[nH]c4c(c3Nc3ccccc3)C(=O)CN(C(=O)N3CCOCC3)C4)ccn2)ccc1F [Example 260] ?
8.10

---

target: catalytic domain of human Bub1 (amino acids 704-1085) (Homo sapiens); construct: catalytic domain of human Bub1 (amino acids 704-1085); His6 (N); made in house; host or cells: Hi5 insect cells; assay: Bub1 kinase assay (TR-FRET); format: biochemical; details: TR-FRET; ATP 10 μM, peptide substrate 1 μM; 60 min at 22° C.; average or median if tested more than once; read-out: Inhibition of Bub1 kinase IC50
endpointLabel: IC50

Completed entries (count: 2):
>  <molSmiles>
O=C(Nc1cc(-c2[nH]c3c(c2Nc2ccccc2)C(=O)COC3)ccn1)c1ccc(F)cc1

>  <IC50>
10 nM

$$$$
>  <molSmiles>
CNC(=O)N1CC(=O)c2c([nH]c(-c3ccnc(NC(C)=O)c3)c2Nc2ccc(F)cc2)C1

>  <IC50>
17 nM

$$$$

Which IC50 value belongs to `COc1cnccc1-c1[nH]c2c(c1Nc1ccccc1)C(=O)CN(S(=O)(=O)C(F)F)C2` ?
6 nM

Which IC50 value belongs to `O=C1CN(C(=O)N2CCOCC2)Cc2[nH]c(-c3ccncc3)c(Nc3ccccc3)c21` ?
3 nM

Which IC50 value belongs to `CS(=O)(=O)N1CC(=O)c2c([nH]c(-c3ccncc3OCC(F)F)c2Nc2ccccc2)C1` ?
12 nM

Which IC50 value belongs to `CS(=O)(=O)N1CC(=O)c2c([nH]c(-c3ccncc3OCC(F)(F)F)c2Nc2ccccc2)C1` ?
36 nM

Which IC50 value belongs to `O=C(Nc1cc(-c2[nH]c3c(c2Nc2ccccc2)C(=O)COC3)ccn1)c1ccn[nH]1` ?
16 nM
